Listing: pIC50 of selected compounds
# measurement_target: MEK1 activated ERK1 (Homo sapiens, UniProt P27361)
# Construct: purchased Millipore (Billerica, Mass.) 14-439-K
# Sequence (P27361 whole entry): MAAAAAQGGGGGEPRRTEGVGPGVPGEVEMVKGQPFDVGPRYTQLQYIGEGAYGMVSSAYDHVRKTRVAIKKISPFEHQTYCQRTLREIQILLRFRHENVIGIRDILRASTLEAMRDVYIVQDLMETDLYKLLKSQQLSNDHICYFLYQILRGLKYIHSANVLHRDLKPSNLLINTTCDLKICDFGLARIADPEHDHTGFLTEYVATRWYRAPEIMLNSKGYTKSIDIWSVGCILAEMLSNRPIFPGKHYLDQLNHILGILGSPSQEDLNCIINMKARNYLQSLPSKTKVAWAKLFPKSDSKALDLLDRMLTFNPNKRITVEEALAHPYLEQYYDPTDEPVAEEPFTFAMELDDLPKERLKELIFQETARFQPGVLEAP
# protocol_notes: Omnia continuous-read kinase assay for potency against MEK1 activated ERK1
# Type: biochemical
# assay_context: ATP at KM, WT
pIC50: −log10 of the molar value.
experimental_endpoint: pIC50

>>> measurement("C=CC(=O)Nc1cc(C)ccc1Nc1nc(Nc2cc(P(C)(C)=O)ncc2C)ncc1C(F)(F)F")
"6.30 to 7.00"
>>> measurement("C=CC(=O)Nc1cc(CN2CCN(C)CC2)ccc1Nc1nc(Nc2cc(OC)ncc2C)ncc1C(F)(F)F")
"< 6.00"
>>> measurement("C=CC(=O)Nc1cc(C)ccc1Nc1nc(Nc2ccc3ocnc3c2)ncc1C(F)(F)F")
"< 6.00"
>>> measurement("C=CC(=O)Nc1cc(C)c(F)cc1Nc1nc(Nc2nc(OC)ncc2Cl)ncc1C(F)(F)F")
"> 7.00"

====

# Tested on: HT-29 cells (colorectal adenocarcinoma)
# protocol_notes: Inhibition of cancer cell proliferation, HT-29 (CellTiterGlo, 72 hours)
# Assay type: cell-based
# assay_context: Homo sapiens
Listing: GI50 of selected compounds
experimental_endpoint: GI50

>>> measurement("C=CC(=O)Nc1ccccc1Nc1nc(Nc2ccc(NC(=O)CO)cc2OC)ncc1Cl")
"> 1 µM"
>>> measurement("C=CC(=O)Nc1ccccc1Nc1nc(NC2CCN(S(C)(=O)=O)CC2)ncc1Cl")
"0.101 to 0.5 µM"
>>> measurement("C=CC(=O)Nc1ccccc1Nc1nc(Nc2cc(NCCOC)nc(OC)c2)ncc1C(F)(F)F")
"< 0.1 µM"
>>> measurement("C=CC(=O)Nc1ccccc1Nc1nc(Nc2cc(OC)ccc2C)ncc1C(F)(F)F")
"0.101 to 0.5 µM"

====

Listing: pIC50 of selected molecules
# measurement_target: MEK1 activated ERK1 (Homo sapiens, UniProt P27361)
# Construct: purchased Millipore (Billerica, Mass.) 14-439-K
# protocol_notes: Omnia continuous-read kinase assay for potency against MEK1 activated ERK1
# Format: biochemical
# assay_context: MEK1 activated ERK1, ATP at KM; read-out: ERK1 Omnia WT ATP KM IC50
pIC50: −log10 of the molar value.
experimental_endpoint: pIC50

>>> measurement("C=CC(=O)Nc1ccccc1Nc1nc(Nc2cc(C(=O)NC)c(F)cc2C)ncc1Cl")
"6.30 to 7.00"
>>> measurement("C=CC(=O)Nc1ccccc1Nc1nc(N[C@@H]2CCC[C@H](C(=O)NOC)C2)ncc1C(F)(F)F (racemic)")
"6.30 to 7.00"
>>> measurement("C=CC(=O)Nc1ccccc1Nc1nc(N[C@@H]2CCC[C@H](C(=O)NOCCO)C2)ncc1Cl (racemic)")
"> 7.00"
>>> measurement("C=CC(=O)Nc1ccccc1Nc1nc(Nc2ccc(N3CCNCC3)cc2OC(F)F)ncc1Cl")
"6.30 to 7.00"

====

Listing: GI50 of selected compounds
# Tested on: A375 cells (malignant melanoma)
# protocol_notes: Inhibition of cancer cell proliferation, A375 (CellTiterGlo, 72 hours)
# Assay type: cell-based
# assay_context: Homo sapiens, A-375
experimental_endpoint: GI50

>>> measurement("C=CC(=O)Nc1cc(C)ccc1Nc1nc(Nc2ccncc2C)ncc1Cl")
"< 100 nM"
>>> measurement("C=CC(=O)Nc1cc(C(F)(F)F)ccc1Nc1nc(Nc2cc(OC)ncc2C)ncc1C(F)(F)F")
"101 to 500 nM"
>>> measurement("C=CC(=O)Nc1ccccc1Nc1nc(N[C@H]2CCC[C@@H](C(N)=O)C2)ncc1C(F)(F)F")
"101 to 500 nM"
>>> measurement("C=CC(=O)Nc1ccc(C)cc1Nc1nc(N[C@H]2CCCN(C(=O)CO)C2)ncc1C(F)(F)F")
"< 100 nM"
>>> measurement("C=CC(=O)Nc1cc(C)ccc1Nc1nc(Nc2cc(OCCOC)ncc2C)ncc1C(F)(F)F")
"101 to 500 nM"
>>> measurement("C=CC(=O)Nc1cc(C)ccc1Nc1nc(Nc2cc(OC)cc(OC)c2)ncc1C(F)(F)F")
"< 100 nM"
>>> measurement("C=CC(=O)Nc1cc(C)ccc1Nc1nc(Nc2cc(OC)nc(N3CC(O)C3)c2)ncc1C(F)(F)F")
"< 100 nM"
>>> measurement("C=CC(=O)Nc1cc(C)ccc1Nc1nc(Nc2nc(OC)ncc2OC)ncc1C(F)(F)F")
"101 to 500 nM"
>>> measurement("C=CC(=O)Nc1ccccc1Nc1nc(Nc2cncc(OC)c2)ncc1C(F)(F)F")
"< 100 nM"
>>> measurement("C=CC(=O)Nc1cc(OC)ccc1Nc1nc(Nc2cc(OC)nc(N3CCN(C)CC3)c2)ncc1C(F)(F)F")
"< 100 nM"
>>> measurement("C=CC(=O)Nc1cc(C)ccc1Nc1nc(N[C@H]2CCCN(C(=O)CF)C2)ncc1C(F)(F)F")
"< 100 nM"
>>> measurement("C=CC(=O)Nc1cc(C)ccc1Nc1nc(N[C@H]2CCCN(C(C)=O)C2)ncc1Cl")
"< 100 nM"
>>> measurement("C=CC(=O)Nc1ccccc1Nc1nc(N[C@H]2CCCN(C(N)=O)C2)ncc1C(F)(F)F")
"101 to 500 nM"
>>> measurement("C=CC(=O)Nc1cc(C)ccc1Nc1nc(Nc2ncc(F)c(OC)n2)ncc1C(F)(F)F")
"501 to 999 nM"
>>> measurement("NC(=O)c1ccccc1Nc1nc(N[C@H]2CCCN(C(=O)CO)C2)ncc1C(F)(F)F")
"< 100 nM"
>>> measurement("C=CC(=O)Nc1ccccc1Nc1nc(NC2CCC(=O)CC2)ncc1C(F)(F)F")
"101 to 500 nM"

====

# Test system: ERK1/2 phosphorylation of p90RSK in HCT116 cells
# protocol_notes: Detection of total and phospho-RSK by MSD ELISA (HCT116)
# Format: cell-based
# assay_context: Homo sapiens, HCT-116, read-out: ERK1/ERK2 PRSK HCT116 EC50
Listing: EC50 of selected compounds
experimental_endpoint: EC50

>>> measurement("C=CC(=O)Nc1cc(O[C@@H](C)C(N)=O)ccc1Nc1nc(Nc2cc(OC)ncc2C)ncc1C(F)(F)F [Compound I-412]")
"101 to 500 nM"
>>> measurement("C=CC(=O)Nc1cc(CN2CCN(S(C)(=O)=O)CC2)ccc1Nc1nc(Nc2nc(OC)ncc2C)ncc1C(F)(F)F [Compound I-383]")
"101 to 500 nM"
>>> measurement("C=CC(=O)Nc1cc(C)ccc1Nc1nc(Nc2cnnc(OC)c2)ncc1C(F)(F)F [Compound I-335]")
"501 to 999 nM"
>>> measurement("C=CC(=O)Nc1ccccc1Nc1nc(Nc2cc(NCCOC)nc(OC)c2)ncc1C(F)(F)F [Compound I-286]")
"< 100 nM"

====

# Test system: HT-29 cells (colorectal adenocarcinoma)
# protocol_notes: Inhibition of cancer cell proliferation, HT-29 (CellTiterGlo, 72 hours)
# Format: cell-based
# assay_context: Homo sapiens
experimental_endpoint: GI50

>>> measurement("C=CC(=O)Nc1ccccc1Nc1nc(Nc2cc(C(=O)NCCO)c(F)cc2C)ncc1C(F)(F)F [Compound I-81]")
"< 100 nM"
>>> measurement("C=CC(=O)Nc1cc(C)ccc1Nc1nc(Nc2nc(OC)ncc2OC)ncc1C(F)(F)F [Compound I-349]")
"101 to 500 nM"
>>> measurement("C=CC(=O)Nc1ccccc1Nc1nc(Nc2cc(C(=O)NOC)ccc2C)ncc1C(F)(F)F [Compound I-69]")
"< 100 nM"
>>> measurement("C=CC(=O)Nc1ccccc1Nc1nc(NC2CCN(C(=O)CCCC(=O)NCCCOCCOCCOCCCNC(=O)CCCC[C@@H]3SC[C@@H]4NC(=O)N[C@@H]43)CC2)ncc1Cl [Compound I-300]")
"> 1000 nM"
>>> measurement("C=CC(=O)Nc1cc(C)ccc1Nc1nc(Nc2ccncc2C)ncc1Cl [Compound I-236]")
"101 to 500 nM"
>>> measurement("C=CC(=O)Nc1cc(C)ccc1Nc1nc(Nc2cc(OC)ncc2C)ncc1C(F)(F)F [Compound I-90]")
"101 to 500 nM"
>>> measurement("C=CC(=O)Nc1ccccc1Nc1nc(N[C@@H]2CCC[C@H](C(N)=O)C2)ncc1C(F)(F)F (racemic) [Compound I-2]")
"101 to 500 nM"

====

# Test system: HT-29 cells (colorectal adenocarcinoma)
# protocol_notes: Inhibition of cancer cell proliferation, HT-29 (CellTiterGlo, 72 hours)
# Type: cell-based
# assay_context: Homo sapiens
experimental_endpoint: GI50

>>> measurement("C=CC(=O)Nc1ccccc1Nc1nc(Nc2ccc(OCCCNC(=O)CCCC(=O)NCCCOCCOCCOCCCNC(=O)CCCC[C@H]3SC[C@H]4NC(=O)N[C@H]43)cc2OC)ncc1Cl")
"> 1000 nM"
>>> measurement("CCC(=O)Nc1ccccc1Nc1nc(N[C@H]2CCCN(C(=O)CO)C2)ncc1Cl")
"501 to 999 nM"
>>> measurement("C=CC(=O)Nc1ccccc1Nc1nc(Nc2cc(OC)nc(N3CCN(C)CC3)c2)ncc1C(F)(F)F")
"< 100 nM"
>>> measurement("C=CC(=O)Nc1ccccc1Nc1nc(Nc2cc(C(=O)NC)c(F)cc2C)ncc1Cl")
"< 100 nM"
>>> measurement("C=CC(=O)Nc1ccccc1Nc1nc(N[C@@H]2CCC[C@H](C(N)=O)C2)ncc1C(F)(F)F [Compound I-7]")
"501 to 999 nM"
>>> measurement("CC(C)S(=O)(=O)c1ccccc1Nc1nc(N[C@H]2CCCN(C(=O)CO)C2)ncc1C(F)(F)F")
"< 100 nM"
>>> measurement("C=CC(=O)Nc1cc(C)ccc1Nc1nc(Nc2cc(OC)nc(N3CCN(C(C)=O)CC3)c2)ncc1C(F)(F)F")
"< 100 nM"
